Biological target: TLR8 (Homo sapiens)
Sequence (Q9NR97 27-1041): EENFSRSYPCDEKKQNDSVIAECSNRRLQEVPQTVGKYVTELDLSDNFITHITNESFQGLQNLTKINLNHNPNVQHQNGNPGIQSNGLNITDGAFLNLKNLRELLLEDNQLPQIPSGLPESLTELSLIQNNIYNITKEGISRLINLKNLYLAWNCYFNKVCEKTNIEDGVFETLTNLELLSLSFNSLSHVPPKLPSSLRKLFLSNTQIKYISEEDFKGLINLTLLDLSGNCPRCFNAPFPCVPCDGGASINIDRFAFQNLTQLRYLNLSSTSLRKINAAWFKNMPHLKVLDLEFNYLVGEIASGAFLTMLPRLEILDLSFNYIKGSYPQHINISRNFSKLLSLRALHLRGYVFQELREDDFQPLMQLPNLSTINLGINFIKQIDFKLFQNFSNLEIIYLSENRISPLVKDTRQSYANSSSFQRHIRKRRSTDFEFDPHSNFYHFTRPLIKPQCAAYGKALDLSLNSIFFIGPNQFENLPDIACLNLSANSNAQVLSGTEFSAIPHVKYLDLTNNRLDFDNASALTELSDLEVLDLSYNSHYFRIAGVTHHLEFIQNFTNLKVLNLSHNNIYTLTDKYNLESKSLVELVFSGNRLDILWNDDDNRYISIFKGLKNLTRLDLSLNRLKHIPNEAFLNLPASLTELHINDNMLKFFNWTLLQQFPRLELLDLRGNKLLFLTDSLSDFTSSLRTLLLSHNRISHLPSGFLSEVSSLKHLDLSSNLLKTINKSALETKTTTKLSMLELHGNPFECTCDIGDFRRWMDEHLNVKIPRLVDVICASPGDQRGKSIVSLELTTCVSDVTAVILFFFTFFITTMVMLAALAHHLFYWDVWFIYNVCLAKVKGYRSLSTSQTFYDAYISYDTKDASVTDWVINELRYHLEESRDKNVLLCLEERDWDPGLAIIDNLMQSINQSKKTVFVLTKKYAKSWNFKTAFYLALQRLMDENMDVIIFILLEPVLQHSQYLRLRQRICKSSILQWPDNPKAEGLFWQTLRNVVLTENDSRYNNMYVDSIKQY
Assay: HEK/293 TLR8 Cell Assay
Settings: HEK cells, R848 agonist 30 uM final concentration, Steady-Glo readout; read-out: TLR8 potency
Counter-ions that a name gives are not always drawn.
Result type: IC50

C[C@H]1C[C@@H](NC(=O)C[C@H]2CCNC[C@H]2F)CN(c2ccc(C#N)c3ncncc23)C1 yielded IC50 of 75 to 150 nM

Cc1c(F)cc(N2C[C@@H](C)C[C@@H](NC(=O)[C@H](N)CO)C2)c2cccnc12 yielded IC50 of < 75 nM

C[C@H]1C[C@@H](NCC2COC2)CN(c2ccc(C#N)c3nccnc23)C1 yielded IC50 of < 75 nM

C[C@@H]1CN(c2cnc(C#N)c3ncccc23)C[C@H](CNC(=O)[C@]2(F)CCN(C)C2)O1 (single isomer, unassigned) yielded IC50 of < 75 nM

C[C@@H]1CN(c2ccc(C#N)c3nccnc23)C[C@H](CNC(=O)[C@H](C)O)O1 (single isomer, unassigned) yielded IC50 of < 75 nM

C[C@@H]1CN(c2ccc(C#N)c3ncncc23)C[C@H](C(=O)NCC2(F)CCN(C)CC2)O1 yielded IC50 of < 75 nM

CC(C(=O)N[C@@H]1C[C@H](C)CN(c2cnc(C#N)c3nccnc23)C1)N1CCN(C)CC1 (stereo partly shown) yielded IC50 of < 75 nM

N#Cc1ccc(N2C[C@H](NC(=O)C(O)CO)C[C@H](C(F)(F)F)C2)c2cccnc12 (stereo partly shown) yielded IC50 of < 75 nM

CC(C(=O)N[C@@H]1C[C@H](C(F)(F)F)CN(c2ccc(C#N)c3nccnc23)C1)N1CCN(C)CC1 (single isomer, unassigned) yielded IC50 of < 75 nM

C[C@@H]1CN(c2ccc(C#N)c3nccnc23)C[C@H](CSC2CNC2)O1 [Example 225, hydrochloride] yielded IC50 of < 75 nM

C[C@@H]1CN(c2ccc(C(F)(F)F)c3ncccc23)C[C@H](CN2CCN(C)CC2)O1 yielded IC50 of < 75 nM

COc1ncc(N2C[C@@H](C)C[C@@H](N)C2)c2nccnc12 yielded IC50 of < 75 nM

C[C@@H]1CN(c2cnc(C#N)c3ncccc23)C[C@H](CNC(=O)[C@@]2(F)CCCNC2)O1 (single isomer, unassigned) yielded IC50 of < 75 nM

C[C@@H]1CN(c2ccc(C#N)c3nccnc23)C[C@H](CN2CC(O)C2)O1 yielded IC50 of > 150 nM

C[C@H]1C[C@@H](NC(=O)[C@H](O)CO)CN(c2ccc(C#N)c3nccnc23)C1 yielded IC50 of < 75 nM

C[C@H]1C[C@@H](NCC(C)(C)O)CN(c2ccc(C(F)(F)F)c3ncccc23)C1 yielded IC50 of < 75 nM

C[C@@H](C(=O)N[C@@H]1C[C@H](C(F)(F)F)CN(c2ccc(C#N)c3ncccc23)C1)N1CCN(C)CC1 (single isomer, unassigned) yielded IC50 of < 75 nM

CCN1CCN(C[C@H]2CN(c3cnc(C#N)c4ncccc34)C[C@@H](C)O2)CC1 yielded IC50 of < 75 nM

N#Cc1ccc(N2C[C@@H](C(=O)NC[C@@H](O)CO)O[C@@H](C(F)(F)F)C2)c2nccnc12 (single isomer, unassigned) yielded IC50 of > 150 nM

C[C@@H]1CN(c2ccc(C#N)c3nccnc23)C[C@H](CN2CC[C@@H](O)C2)O1 yielded IC50 of > 150 nM

C[C@H]1C[C@@H](NCC(C)(C)O)CN(c2ccc(C#N)c3nccnc23)C1 yielded IC50 of < 75 nM

C[C@H]1C[C@@H](NCC2(O)CCOCC2)CN(c2ccc(C#N)c3nccnc23)C1 yielded IC50 of < 75 nM

C[C@@H]1CN(c2cnc(C#N)c3ncccc23)C[C@H](C(=O)NCC2(F)CCN(C)CC2)O1 yielded IC50 of > 150 nM

C[C@H]1C[C@@H](NC(=O)C2CCN(C(=O)[C@@H](N)[C@@H](C)O)CC2)CN(c2ccc(C(F)(F)F)c3ncccc23)C1 yielded IC50 of < 75 nM

C[C@@H]1CN(c2cnc(C#N)c3ncccc23)C[C@H](CN2CCN(CCO)CC2)O1 yielded IC50 of < 75 nM

N#Cc1ccc(N2C[C@H](NC(=O)C3(F)CCNC3)C[C@H](C(F)(F)F)C2)c2cccnc12 (single isomer, unassigned) [Example 163] yielded IC50 of < 75 nM

N#Cc1ccc(N2C[C@@H](C(=O)NC[C@@]3(F)CCNC3)O[C@@H](C(F)(F)F)C2)c2nccnc12 (single isomer, unassigned) yielded IC50 of < 75 nM

C[C@@H]1CN(c2ccc(C#N)c3nccnc23)C[C@H](C(=O)N2CC(N3CC(C)(O)C3)C2)O1 yielded IC50 of 75 to 150 nM

* * *

Field: pIC50. Provide a value for each of the compounds that follow.
target: TLR8 (Homo sapiens, UniProt Q9NR97); construct: expressed in transfected cells; host or cells: HEK/293 reporter cells (NF-kB luciferase); assay: HEK/293 TLR8 Cell Assay; format: cell-based; details: HEK cells, R848 agonist 30 uM final concentration, Steady-Glo readout; read-out: TLR8 potency
pIC50: −log10 of the molar value. Where a name gives a salt, the structure may show the parent alone.

C[C@H]1C[C@@H](NCCNS(N)(=O)=O)CN(c2ccc(C(F)(F)F)c3ncccc23)C1 yielded pIC50 of > 7.12

CCS(=O)(=O)NCCN[C@@H]1C[C@H](C)CN(c2ccc(C#N)c3nccnc23)C1 yielded pIC50 of > 7.12

CONC(=O)CCCN[C@@H]1C[C@H](C)CN(c2ccc(C(F)(F)F)c3nccnc23)C1 yielded pIC50 of > 7.12

Cc1ccc(N2C[C@@H](C)C[C@@H](NC(=O)CC3(O)CCN(C)CC3)C2)c2cccnc12 [Example 85, hydrochloride] yielded pIC50 of > 7.12

C[C@@H]1CN(c2ccc(C#N)c3nccnc23)C[C@H](C(=O)NC2CCN(CC3CC3)C2)O1 (stereo partly shown) yielded pIC50 of > 7.12

C[C@@H]1CN(c2ccc(C#N)c3nccnc23)C[C@H](CN2CCC(F)(F)C2)O1 yielded pIC50 of < 6.82

N#Cc1ccc(N2C[C@H](NCC3CCCNC3)C[C@H](C(F)(F)F)C2)c2cccnc12 (stereo partly shown) yielded pIC50 of 6.82 to 7.12

CCN(CC)CCO[C@@H]1C[C@H](C)CN(c2ccc(C#N)c3nccnc23)C1 yielded pIC50 of > 7.12

C[C@H]1C[C@@H](NS(=O)(=O)NC2CCN(C)CC2)CN(c2ccc(C(F)(F)F)c3ncccc23)C1 yielded pIC50 of > 7.12

C[C@@H]1CN(c2ccc(C#N)c3nccnc23)C[C@H](CSCC(O)CO)O1 (stereo partly shown) yielded pIC50 of > 7.12

C[C@@H]1CN(c2cnc(C(F)(F)F)c3ncccc23)C[C@H](CNC2CCS(=O)(=O)CC2)O1 yielded pIC50 of < 6.82

C[C@@H]1CN(c2cnc(C#N)c3ncccc23)C[C@H](C(=O)NCC2CN(C)CCO2)O1 (stereo partly shown) yielded pIC50 of > 7.12

C[C@@H]1CN(c2ccc(C#N)c3nccnc23)C[C@H](C(=O)NC[C@@H](O)C(F)(F)F)O1 yielded pIC50 of > 7.12

C[C@H]1C[C@@H](NCCN2CCNC2=O)CN(c2ccc(C(F)(F)F)c3ncccc23)C1 yielded pIC50 of > 7.12

C[C@H]1C[C@@H](NCC2(O)CCOCC2)CN(c2ccc(C(F)(F)F)c3ncccc23)C1 yielded pIC50 of > 7.12

CNS(=O)(=O)CCCN[C@@H]1C[C@H](C)CN(c2ccc(C(F)(F)F)c3ncccc23)C1 yielded pIC50 of > 7.12
